- Test system: HeLa MKYP cells
- PROCEDURE_DETAILS: Cell death measured by DAPI staining, with 1 μM FCCP/oligomycin or no toxin (no FO)
- Assay type: cell-based
- ASSAY_SETUP: with 1 μM FO
Would you mind labelling by Max % death with 1 μM FO? At or over 9% is 1.0, under is 0.0.

The examples below pair each entry with its known result.
COMPOUND	CATEGORY_LABEL
COC1CN([C@@H]2COc3ccccc3[C@H]2Nc2ncnc3[nH]c(C4CC4)cc23)C1 [EP-0040848]	1.0
FC(F)(F)c1cc2c(N[C@@H]3c4ccccc4OC[C@H]3C3CCCOC3)ncnc2[nH]1 (some centres unmarked) [EP-0041003]	0.0
[O-][S+]1CCN(C2CCc3ccccc3C2Nc2ncnc3[nH]c(C4CC4)cc23)CC1 (centres unmarked) [EP-0040665]	0.0
FC(F)(F)c1cc2c(N[C@H]3c4ccccc4CC[C@@H]3N3CCCCC3)ncnc2[nH]1 (single isomer, unassigned) [EP-0038392]	1.0
OC1CC2(C1)CN([C@H]1COc3ccccc3[C@@H]1Nc1ncnc3[nH]c(C(F)(F)F)cc13)C2 (single isomer, unassigned) [EP-0040725]	0.0

Lookup: Exam item: decide whether the reported Max % death with 1 μM FO for OC(C1CCOCC1)C1COc2ccccc2C1Nc1ncnc2[nH]c(C(F)(F)F)cc12 (single isomer, unassigned) [EP-0041270] is at least 9%.
Found: 1.0

Lookup: Determine whether measured Max % death with 1 μM FO meets or exceeds 9% for COC1CN([C@H]2CCc3ccccc3[C@@H]2Nc2ncnc3[nH]c(C(F)(F)F)cc23)C1 [EP-0040688]
Found: 1.0

Lookup: Hi, just wondering whether COC1CN([C@H]2CCc3ccccc3[C@@H]2Nc2ncnc3[nH]c(C(F)(F)F)cc23)C1 [EP-0040857] shows Max % death with 1 μM FO of 9% or higher.
Found: 1.0

Lookup: Tell me whether Max % death with 1 μM FO is at least 9% here: C[C@H]1CN([C@@H]2CCc3ccccc3[C@H]2Nc2ncnc3[nH]c(C(F)(F)F)cc23)CCO1 (single isomer, unassigned) [EP-0040504]
Found: 0.0

Lookup: Decide: Max % death with 1 μM FO of FC(F)(F)c1cc2c(N[C@H]3c4ccccc4CC[C@H]3C3CCOCC3)ncnc2[nH]1 [EP-0040557] >= 9%?
Found: 0.0

Lookup: Is the recorded value of Max % death with 1 μM FO equal to or greater than 9% for this compound? C[C@@H]1CN([C@H]2COc3ccccc3[C@@H]2Nc2ncnc3[nH]c(C4CC4)cc23)C[C@H](C)O1 [EP-0040944]
Found: 0.0

Lookup: Could you verify whether the entry Fc1ccc2c(c1)CC[C@@H](N1CCOCC1)[C@@H]2Nc1ncnc2[nH]c(C3CC3)cc12 [EP-0039747] shows Max % death with 1 μM FO of no less than 9%?
Found: 1.0

Lookup: I'd appreciate it if you could say whether Fc1ccc2c(c1)CC[C@H](N1CCOCC1)[C@H]2Nc1ncnc2[nH]c(C(F)(F)F)cc12 (single isomer, unassigned) [EP-0038503] has Max % death with 1 μM FO at least equal to 9%.
Found: 0.0
